# System: NIH 3T3 mouse fibroblast cells
# Method: MTS assay, NIH 3T3 cells
# Assay type: cell-based
Square brackets hold non-standard residues; d marks the D form. Peptide text beside a SMILES is read from it. Nspe = C[C@H](NCC(=O)O)c1ccccc1; Nphe = O=C(O)CNCc1ccccc1; Nlys = NCCCCNCC(=O)O
Property name: ID50 (µM)

Compound: C[C@@H](c1ccccc1)N(CC(N)=O)C(=O)CN(Cc1ccccc1)C(=O)CN(CCCCN)C(=O)CN(C(=O)CN(Cc1ccccc1)C(=O)CN(CCCCN)C(=O)CN(C(=O)CN(Cc1ccccc1)C(=O)CN(CCCCN)C(=O)CN(C(=O)CN(Cc1ccccc1)C(=O)CNCCCCN)[C@@H](C)c1ccccc1)[C@@H](C)c1ccccc1)[C@@H](C)c1ccccc1 [1-Npm2,5,8,11, H-(Nlys-Npm-Nspe)4-NH2] (H-[Nlys][Nphe][Nspe][Nlys][Nphe][Nspe][Nlys][Nphe][Nspe][Nlys][Nphe][Nspe]-NH2)
Observed value: 6.8
